# measurement_target: Phosphatidylinositol 4,5-bisphosphate 3-kinase catalytic subunit beta isoform (Homo sapiens)
# Sequence (P42338 whole entry, canonical isoform): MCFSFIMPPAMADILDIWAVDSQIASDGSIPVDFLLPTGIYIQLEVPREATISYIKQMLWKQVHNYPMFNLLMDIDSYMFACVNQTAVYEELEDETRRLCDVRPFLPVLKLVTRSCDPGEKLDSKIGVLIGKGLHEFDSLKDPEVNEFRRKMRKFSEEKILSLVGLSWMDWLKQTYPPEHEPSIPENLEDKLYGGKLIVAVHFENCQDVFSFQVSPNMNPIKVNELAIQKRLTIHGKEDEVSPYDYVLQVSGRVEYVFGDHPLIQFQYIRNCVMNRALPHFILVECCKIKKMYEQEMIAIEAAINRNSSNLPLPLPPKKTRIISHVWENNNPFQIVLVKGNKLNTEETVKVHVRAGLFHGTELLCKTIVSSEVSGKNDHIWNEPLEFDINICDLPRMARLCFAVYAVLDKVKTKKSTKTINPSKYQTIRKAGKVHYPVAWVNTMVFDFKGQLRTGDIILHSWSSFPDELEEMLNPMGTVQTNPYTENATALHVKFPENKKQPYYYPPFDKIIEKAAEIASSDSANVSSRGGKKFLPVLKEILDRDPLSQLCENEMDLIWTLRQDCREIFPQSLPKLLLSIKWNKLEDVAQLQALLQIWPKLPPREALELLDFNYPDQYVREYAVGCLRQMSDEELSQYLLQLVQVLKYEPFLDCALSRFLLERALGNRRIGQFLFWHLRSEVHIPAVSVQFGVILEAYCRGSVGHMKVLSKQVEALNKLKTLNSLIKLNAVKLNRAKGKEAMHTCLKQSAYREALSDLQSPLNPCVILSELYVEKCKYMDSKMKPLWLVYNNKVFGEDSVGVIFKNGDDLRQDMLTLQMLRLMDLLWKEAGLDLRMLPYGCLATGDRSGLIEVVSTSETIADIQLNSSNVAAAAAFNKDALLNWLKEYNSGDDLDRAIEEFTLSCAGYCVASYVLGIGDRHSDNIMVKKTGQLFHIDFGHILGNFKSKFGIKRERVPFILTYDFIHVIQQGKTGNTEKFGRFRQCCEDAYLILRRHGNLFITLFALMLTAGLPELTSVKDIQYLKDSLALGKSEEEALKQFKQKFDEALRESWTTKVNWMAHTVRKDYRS
# assay_overview: Inhibition of PI3Kbeta (unknown origin) using PIP2 as substrate incubated for 1 hr in presence of ATP by Kinase Glo luminescence assay
experimental_endpoint: IC50 (nM)
Quick reminder: number only, in nM, skip the unit.

### Prompt Quick one: IC50 of `Cc1nc2cnc3ccc(-c4cnc5[nH]ccc5c4)cc3c2n1-c1ccc(C(C)(C)C#N)nc1` ?
### Response 108

* * *

# System: HeLa
# assay_overview: Antiproliferative activity against human HeLa cells assessed as inhibition of cell growth incubated for 48 to 72 hrs by MTT assay
# Assay type: functional, cell-based
The following compounds are shown together with reported pIC50 values.
Conceptually, pIC50 converts a concentration in mol/L into minus its log10.

>>> observed_result("Cc1nc2cnc3ccc(-c4cnc5[nH]ccc5c4)cc3c2n1-c1ccc(C(F)(F)F)nc1")
5.43
>>> observed_result("Cc1nc2cnc3ccc(-c4cnc5[nH]ccc5c4)cc3c2n1[C@@H](C)c1ccccc1")
5.79
>>> observed_result("Cc1nc2cnc3ccc(-c4cnc5[nH]ccc5c4)cc3c2n1-c1ccc(F)cc1")
5.74

Could you now look at the following compound, please?
### Prompt Quick one: pIC50 of `Cc1nc2cnc3ccc(-c4cnc5[nH]ccc5c4)cc3c2n1-c1ccccc1` ?
### Response 5.44

* * *

# measurement_target: Serine/threonine-protein kinase mTOR (Homo sapiens, UniProt P42345)
# assay_overview: Inhibition of N-terminal FLAG-tagged recombinant human mTOR (1362 to end residue) using ULight-4EBP1 peptide as substrate incubated for 30 mins in presence of ATP by Lance ultra assay
experimental_endpoint: pIC50
Conceptually, pIC50 converts a concentration in mol/L into minus its log10.

Example entries begin here.
>>> observed_result("Cc1nc2cnc3cc(F)c(-c4cnc5[nH]ccc5c4)cc3c2n1-c1ccc(C(C)(C)C#N)cc1")
7.34
>>> observed_result("Cc1nc2cnc3ccc(-c4cnc(N5CCOCC5)nc4)cc3c2n1-c1ccc(F)cc1")
6.22
>>> observed_result("Cc1nc2cnc3ccc(-c4cnc5[nH]ccc5c4)cc3c2n1-c1ccccc1")
7.13

Could you now look at the following molecule, please?
### Prompt Quick one: pIC50 of `Cc1nc2cnc3ccc(-c4cnc5[nH]ccc5c4)cc3c2n1-c1ccc(C(C)(C)C#N)cc1` ?
### Response 7.54

* * *

# Test system: HeLa
# assay_overview: Antiproliferative activity against human HeLa cells assessed as inhibition of cell growth incubated for 48 to 72 hrs by MTT assay
# Assay type: functional, cell-based
experimental_endpoint: pIC50
Conceptually, pIC50 converts a concentration in mol/L into minus its log10.

Example entries begin here.
>>> observed_result("Cc1nc2cnc3ccc(-c4cnc5[nH]ccc5c4)cc3c2n1[C@H](C)c1ccccc1")
5.63
>>> observed_result("Cc1nc2cnc3ccc(-c4cnc5[nH]ccc5c4)cc3c2n1[C@@H](C)c1ccc(F)cc1")
5.45
>>> observed_result("Cc1nc2cnc3ccc(-c4cnc5[nH]ccc5c4)cc3c2n1-c1ccc(F)nc1")
5.72
>>> observed_result("Cc1nc2cnc3ccc(-c4ccc(N)nc4)cc3c2n1-c1ccc(F)cc1")
5.77

### Prompt Quick one: pIC50 of `Cn1c(=O)n(-c2ccc(C(C)(C)C#N)cc2)c2c3cc(-c4cnc5ccccc5c4)ccc3ncc21` ?
### Response 5.96

### Prompt Quick one: pIC50 of `Cc1nc2cnc3ccc(-c4ccc5ccccc5c4)cc3c2n1-c1ccc(F)cc1` ?
### Response 4.77

### Prompt Quick one: pIC50 of `Cc1nc2cnc3ccc(-c4cnc5[nH]ccc5c4)cc3c2n1Cc1ccccc1` ?
### Response 5.57

### Prompt Quick one: pIC50 of `Cc1nc2cnc3ccc(-c4cnc5[nH]ccc5c4)cc3c2n1-c1ccc(N2CCOCC2)cc1` ?
### Response 6.03

### Prompt Quick one: pIC50 of `COC(=O)c1ccc(-c2ccc3ncc4nc(C)n(-c5ccc(F)cc5)c4c3c2)cc1` ?
### Response 4.70

### Prompt Quick one: pIC50 of `Oc1cccc(-c2nc(N3CCOCC3)c3oc4ncccc4c3n2)c1` ?
### Response 5.43

### Prompt Quick one: pIC50 of `Cc1nc2cnc3cc(F)c(-c4cnc5[nH]ccc5c4)cc3c2n1-c1ccc(C(C)(C)C#N)cc1` ?
### Response 6.29

### Prompt Quick one: pIC50 of `Cc1nc2cnc3ccc(-c4cnc5[nH]ccc5c4)cc3c2n1-c1ccc(CC#N)cc1` ?
### Response 5.56

### Prompt Quick one: pIC50 of `Cc1nc2cnc3ccc(-c4cnc5[nH]ccc5c4)cc3c2n1-c1ccc(C(C)(C)C#N)cc1` ?
### Response 6.72

### Prompt Quick one: pIC50 of `Cc1nc2cnc3ccc(-c4ccc(O)cc4)cc3c2n1-c1ccc(F)cc1` ?
### Response 5.67

### Prompt Quick one: pIC50 of `Cc1nc2cnc3ccc(-c4cnc5[nH]ccc5c4)cc3c2n1-c1ccc(C#N)cc1` ?
### Response 5.25

### Prompt Quick one: pIC50 of `Cc1nc2cnc3ccc(-c4cnc5[nH]ccc5c4)cc3c2n1-c1ccc(C(C)(C)C#N)nc1` ?
### Response 7.05

### Prompt Quick one: pIC50 of `COc1ccc(-n2c(C)nc3cnc4ccc(-c5cnc6[nH]ccc6c5)cc4c32)cc1` ?
### Response 6.02

### Prompt Quick one: pIC50 of `Cc1nc2cnc3ccc(-c4ccc5[nH]ccc5c4)cc3c2n1-c1ccc(F)cc1` ?
### Response 5.75

* * *

# Tested on: HCT-15
# assay_overview: Antiproliferative activity against human HCT-15 cells with PIK3CA mutation assessed as inhibition of cell growth incubated for 48 to 72 hrs by MTT assay
# Type: functional, cell-based
The following compounds are shown together with reported pIC50 values.
Conceptually, pIC50 converts a concentration in mol/L into minus its log10.

Example entries begin here.
>>> observed_result("COc1ccc(-n2c(C)nc3cnc4ccc(-c5cnc6[nH]ccc6c5)cc4c32)cc1")
6.12
>>> observed_result("Cn1c(=O)n(-c2ccc(C(C)(C)C#N)cc2)c2c3cc(-c4cnc5ccccc5c4)ccc3ncc21 [DACTOLISIB]")
6.04
>>> observed_result("Cc1nc2cnc3ccc(-c4cnc5[nH]ccc5c4)cc3c2n1-c1ccc(C(F)(F)F)cc1")
6.01
>>> observed_result("CNC(=O)c1ccc(-c2ccc3ncc4nc(C)n(-c5ccc(F)cc5)c4c3c2)cc1")
4.90
>>> observed_result("Cc1nc2cnc3ccc(-c4ccc(N)cc4)cc3c2n1-c1ccc(F)cc1")
5.63

### Prompt Quick one: pIC50 of `Cc1nc2cnc3ccc(-c4cnc5[nH]ccc5c4)cc3c2n1[C@@H](C)c1ccc(F)cc1` ?
### Response 5.98

### Prompt Quick one: pIC50 of `Cc1nc2cnc3ccc(-c4cnc5[nH]ccc5c4)cc3c2n1-c1ccc(F)cc1` ?
### Response 5.95

### Prompt Quick one: pIC50 of Oc1cccc(-c2nc(N3CCOCC3)c3oc4ncccc4c3n2)c1 [PI-103] ?
### Response 5.75

* * *

# measurement_target: Serine/threonine-protein kinase mTOR (Homo sapiens)
# assay_overview: Inhibition of N-terminal FLAG-tagged recombinant human mTOR (1362 to end residue) using ULight-4EBP1 peptide as substrate incubated for 30 mins in presence of ATP by Lance ultra assay
pIC50: −log10 of the molar value.
Assign satisfied whenever pIC50 does not fall below 7; assign not satisfied whenever it does.

Some entries whose results are on file:
>>> class_assignment("Cc1nc2cnc3ccc(-c4cnc5[nH]ccc5c4)cc3c2n1C")
"not satisfied"
>>> class_assignment("Cc1nc2cnc3ccc(-c4cc(C(F)(F)F)cc(C(F)(F)F)c4)cc3c2n1-c1ccc(F)cc1")
"not satisfied"

### Prompt Could you please find out whether `Cc1nc2cnc3ccc(-c4ccc5[nH]ccc5c4)cc3c2n1-c1ccc(F)cc1` has pIC50 that meets 7 or exceeds it?
### Response satisfied

### Prompt Could you please find out whether `Cc1ccc(-c2ccc3ncc4nc(C)n(-c5ccc(F)cc5)c4c3c2)cc1` has pIC50 that meets 7 or exceeds it?
### Response not satisfied

### Prompt Could you please find out whether `Cc1nc2cnc3ccc(-c4cnc5[nH]ccc5c4)cc3c2n1-c1ccc(F)cc1` has pIC50 that meets 7 or exceeds it?
### Response satisfied

### Prompt Could you please find out whether `Cc1noc(C)c1-c1ccc2ncc3nc(C)n(-c4ccc(F)cc4)c3c2c1` has pIC50 that meets 7 or exceeds it?
### Response not satisfied

### Prompt Could you please find out whether `COc1ccc(-c2ccc3ncc4nc(C)n(-c5ccc(F)cc5)c4c3c2)cc1` has pIC50 that meets 7 or exceeds it?
### Response not satisfied

### Prompt Could you please find out whether `Cc1nc2cnc3ccc(-c4ccc(C(F)(F)F)cc4)cc3c2n1-c1ccc(F)cc1` has pIC50 that meets 7 or exceeds it?
### Response not satisfied

### Prompt Could you please find out whether `Cc1nc2cnc3ccc(-c4cnc5ccccc5c4)cc3c2n1-c1ccc(F)cc1` has pIC50 that meets 7 or exceeds it?
### Response satisfied

### Prompt Could you please find out whether `Cc1nc2cnc3ccc(-c4cnc5[nH]ccc5c4)cc3c2n1-c1ccc(C(C)(C)C#N)nc1` has pIC50 that meets 7 or exceeds it?
### Response satisfied

### Prompt Could you please find out whether Cc1nc2cnc3ccc(-c4cnc5[nH]ccc5c4)cc3c2n1CC1CCOC1 (stereo not given) has pIC50 that meets 7 or exceeds it?
### Response not satisfied

The measured values listed here are drawn from ChEMBL document CHEMBL5108059.
